Data origin, for the record: the NIST ThermoML archive (doi:10.1021/je9006234)

Settings: 298.15 K; 101.33 kPa; Liquid
± gives the expanded uncertainty stated by the source.
VALUE_KIND: mass density

Check out these entries, answers already filled in.
COMPOUND	mass density
c1cc[nH]c1	965.9 ± 2.9 kg/m3
c1ccc2[nH]ccc2c1	1216.68 ± 1.3 kg/m3
Nc1ccccc1	1017.42 ± 0.19 kg/m3
c1ccncc1	978.25 ± 0.27 kg/m3
CCCCCCCCCCCCCCCC	773.19 ± 0.32 kg/m3

(Q) Dear colleague, please send me the reported mass density for CN(C)C=O [dimethylformamide] when you can.
(A) 944.21 ± 0.23 kg/m3

(Q) Dear colleague, please send me the reported mass density for "c1ccc2ncccc2c1" when you can.
(A) 1089.45 ± 0.31 kg/m3
